The following sequences are shown together with reported apparent KD of K4 kissing-loop reporter values.
system: K4 kissing-loop RNA reporter; assay: apparent KD of K4 kissing-loop reporter; higher = weaker reporter binding; conditions: Eterna round: R107; input ligand: FMN 200 uM;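 further: bound reporter read as fluorescence of individual clusters on recovered sequencing chips by microscopy, with normalized cluster intensities fitted with a binding model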
measured quantity: apparent KD of K4 kissing-loop reporter (nM)

> print(dat)
                             input.sequence                assayed.target                        measured.quantity  unit.text  obs.value
1  AAGGGCGGAACUUCCUCGCCGGAUAGAGAUACCAGCCCAGCAAAGGGCCCUUGGCAGCUCACUGACCUCAGUGAUGUUGAGGUUC [Riesrevere]  K4 kissing-loop RNA reporter  apparent KD of K4 kissing-loop reporter         nM        345
2  GUCUGCGUCUCGGCCGCCACUCACUAGUGAUGUUAGUAAGGAGCGACUAGAGAAGUCCAGUUGAUGAGGACCGGGAGACGCAAAA [Exclusion Tryptophan B GF4]  K4 kissing-loop RNA reporter  apparent KD of K4 kissing-loop reporter         nM        114
3  CCCUCACGAGUGAUGUUCGUAGGGUACAGUCAGGAUAUCAUGCGGUUGAGAAGGGACAGGAAGGGCGGCGGCGGGUUGCUCACCG [Atera]  K4 kissing-loop RNA reporter  apparent KD of K4 kissing-loop reporter         nM        154

====

tested on: MS2 coat protein; test: apparent KD of MS2 coat protein, switch OFF state (with FMN for OFF switches, without FMN for ON switches); designed switch direction (-1 OFF switch, 1 ON switch): 1; higher = weaker reporter binding; conditions: FMN input: 0 or 200 uM; Eterna round: R93 (includes R88 designs)
Label not satisfied if apparent KD of MS2 coat protein falls below 80 nM; label satisfied in every other case.

> print(dat)
                             input.sequence    label.class
1  AAAAAACAUGAGGAUCACCCAUGUGCAAAAUUCGCAGGAUAUUCUUCUCUUAAAUGAGAGGGAGAAGGGUGUAAAA [Nob's Hobby 24 - Jieux - Same State 1]  not satisfied
2  AGGAAACAUGAGGAUCACCCAUGUAAAAAUAUGGAAGGAUAUGGAAACACGAAAGUGAAACCAGAAGGUCCGAAAA [77%, Mat - Mod of Eli, 19]  not satisfied
3  GGAACACAUGAGGAUCACCCAUGUCAAGGAGGUCGAGGAUAUAGGAAAAAAAAAAAAAAAUUAGAAGGUGAGGAGG [V1]      satisfied
4  AAAGUACAUGAGGAUCACCCAUGUUGGAACAAAGCAGGAUAUGUACAAAAGGAAAUAAAUACAGAAGGGCUAAGAA [Same State #2]  not satisfied
5  GGGAGACAUGAGGAUCACCCAUGUGAGAAGAGGCGAGGAUAUCGAAAGAAAGAAGAGAAACGAGAAGGCGCGAGGG [salish99-SS1-059]  not satisfied
6  GAAAAACAUGAGGAUCACCCAUGUAGAGAUAUGGGAGGAUAUACGAAGACGAAAGACGAGGUAGAAGGCCUAAAAG [Garnet 57]      satisfied

====

test system: MS2 coat protein; assay: apparent KD of MS2 coat protein; designed switch direction (-1 OFF switch, 1 ON switch): -1; higher = weaker reporter binding; conditions: input ligand: microRNA oligo, concentration not stated

input sequence	unit text	apparent KD of MS2 coat protein
UAUUUAUAGCAAGGAUAUGAUUAUUAUUAUUUAUCAGAAGGUGCACAUGAGGAUCACCCAUGUUUUAUAAUUUGUAAUUUAAUU [Title] (Eterna round: R96, puzzle: Exclusion NG 1)	nM	40.9
GUCAGCUCGUCAGGAUAUACAUGAGGAUCACCCAUGUGAUCAAUAGCAGCUUCGGCUGCAUACAUGUAGAAGGGACGAGCUGAC [ENG2/6-B1] (Eterna round: R96, puzzle: Exclusion NG 2)	nM	18.4
CUACUGAAGCUUUGCUUUAGUCGACAUGAGGAUCACCCAUGUUAGGAUAUGGUAGGCUUUGCUUACUAGAAGGAUAGAGUGAUC [salish99_ExNG3_r04_603] (Eterna round: R96, puzzle: Exclusion NG 3)	nM	55.9
ACAUGUCUUGUAGGAUAUAGUUGACAUGAGGAUCACCCAUGUUGAUUCAUGUCUAUCGAAAGGGACUAGAAGGACGAGAAUAUG [Ex NG2 #16] (Eterna round: R96, puzzle: Exclusion NG 2)	nM	20
AGCUGUGGCCGAGGAUAUACAUGAGGAUCACCCAUGUUACAUAAUUAGGCCGGGUAACCGGCUCCGUAGAAGGCGGUCUCAGCA [Eli eng2 - 004] (Eterna round: R96, puzzle: Exclusion NG 2)	nM	11.7
